Experiment: Intrinsic clearance in rat liver microsomes
Assay type: in vitro ADME
Conditions: pH 7.4, NADPH, read-out: Rat Microsomal Stability T½
resultType: half-life at 1 uM

# example entries with known answers
Cc1cccc(C)c1Oc1cn(C)c(=O)cc1-c1cn(C)c(=O)c2[nH]c(-c3cn(C(C)C)nc3C)cc12    > 1 h
Cc1ccc(Cl)cc1-c1cc2c(-c3cc(=O)n(C)cc3Oc3c(C)cccc3C)cn(C)c(=O)c2[nH]1    > 1 h
Cc1ncc(-c2cc3c(-c4cc(=O)n(C)cc4Oc4c(C)cccc4C)cn(C)c(=O)c3[nH]2)s1    > 1 h

Problem: Return half-life at 1 uM (reported value) for this compound: "Cc1cccc(C)c1Oc1cn(C)c(=O)cc1-c1cn(C)c(=O)c2[nH]c(-c3ccc(F)cc3)cc12"
Result: > 1 h

Problem: Report half-life at 1 uM, nothing else, for this compound: "Cc1cc(-c2cc3c(-c4cc(=O)n(C)cc4Oc4c(C)cccc4C)cn(C)c(=O)c3[nH]2)n(C)n1"
Result: > 1 h

Problem: Output measured half-life at 1 uM for this item: "Cc1cc(-c2cc3c(-c4cc(=O)n(C)cc4Oc4c(C)cccc4C)cn(C)c(=O)c3[nH]2)cc(C)n1"
Result: > 1 h

---

IC50 by entry:
Target: BRD4 BD2 (Homo sapiens)
Construct: HEK293 cells were transfected using NanoLuc-BRD4-BD1 or NanoLuc-BRD4-BD2 fusion vectors
Experiment: NanoBRET bromodomain assay, BRD4 BD2
Conditions: NanoBRET, HEK293 cells transfected with NanoLuc-BRD4-BD2

Below, each entry is followed by its recorded IC50 result.
Cc1cccc(C)c1Oc1cn(C)c(=O)cc1-c1cn(C)c(=O)c2[nH]c(-c3cnn(C(C)C)c3)cc12    ≤ 50 nM
C#Cc1cn(C)c(=O)cc1-c1cn(C)c(=O)c2[nH]c(-c3cnn(C(C)C)c3)cc12    ≤ 50 nM

Problem: Look up and state reported IC50 for "Cc1cccc(C)c1Oc1cn(C)c(=O)cc1-c1cn(C)c(=O)c2[nH]c(-c3ccccc3C#N)cc12"
Result: ≤ 50 nM

Problem: Please give measured IC50 of the following entry: "Cc1cccc(C)c1Oc1cn(C2COC2)c(=O)cc1-c1cn(C)c(=O)c2[nH]c(-c3cnn(C)c3C)cc12"
Result: ≤ 50 nM

Problem: Return value of IC50 for input "Cc1cccc(C)c1Oc1cn(C)c(=O)cc1-c1cn(C)c(=O)c2[nH]c(-c3cnnn3C)cc12" , no commentary.
Result: > 1000 nM

---

Below, each entry is listed alongside its reported IC50.
Target: BRD4 BD2 (Homo sapiens)
Construct: HEK293 cells were transfected using NanoLuc-BRD4-BD1 or NanoLuc-BRD4-BD2 fusion vectors
Assay: NanoBRET bromodomain assay, BRD4 BD2
Details: NanoBRET, HEK293 cells transfected with NanoLuc-BRD4-BD2

Problem: Specify IC50 for "CC(C)n1cc(-c2cc3c(-c4cc(=O)n(C)cc4-c4ccccc4)cn(C)c(=O)c3[nH]2)cn1" and stop.
Result: ≤ 50 nM

Problem: Determine its reported IC50: "Cn1cc(C2CCCC2)c(-c2cn(C)c(=O)c3[nH]c(-c4ccccc4)cc23)cc1=O"
Result: ≤ 50 nM

Problem: Return IC50 (reported value) for this molecule: "Cc1cccc(C)c1Oc1cn(C)c(=O)cc1-c1cn(C)c(=O)c2[nH]c(-c3cccnc3)cc12"
Result: 200 to 1000 nM

Problem: Read off the recorded IC50 for "Cc1ncc(-c2cc3c(-c4cc(=O)n(C)cc4Oc4c(C)cccc4C)cn(C)c(=O)c3[nH]2)s1"
Result: ≤ 50 nM

---

The compounds listed here are annotated with their Mouse Microsomal Stability (intrinsic clearance).
Assay: Intrinsic clearance in mouse liver microsomes
Format: in vitro ADME
Settings: 1 uM, NADPH
Could you give me the number in ml/min/g liver? Just the number is fine.

Observe how each entry below is paired with its result.
Cc1cccc(C)c1Oc1cn(C)c(=O)cc1-c1cn(C)c(=O)c2[nH]c(-c3ncc(C(F)(F)F)[nH]3)cc12 [Example 3]    0.5
CCNC(=O)c1cc2c(-c3ccn(C)c(=O)c3Oc3c(C)cc(F)cc3C)cn(C)c(=O)c2[nH]1 [Comparative Example A, reference compound]    0.9
Cc1cccc(C)c1Oc1cn(C)c(=O)cc1-c1cn(C)c(=O)c2[nH]c(C3=NCCN3)cc12 [Example 4]    0.6
Cc1cc(F)cc(C)c1Oc1c(-c2cn(C)c(=O)c3[nH]c(C(=O)NC(C)(C)C)cc23)ccn(C)c1=O [Comparative Example B, reference compound]    5.1
Cc1cccc(C)c1Oc1cn(C)c(=O)cc1-c1cn(C)c(=O)c2[nH]c(-c3ncc[nH]3)cc12 [Example 2]    0.9
Cc1cnc(-c2cc3c(-c4cc(=O)n(C)cc4-c4ccccc4)cn(C)c(=O)c3[nH]2)[nH]1 [Example 5]    0.6

Now turn to the next compound.
Problem: Output measured Mouse Microsomal Stability (intrinsic clearance) for this item: Cc1cnc(-c2cc3c(-c4cc(=O)n(C)cc4Oc4c(C)cccc4C)cn(C)c(=O)c3[nH]2)[nH]1 [Example 1]
Result: 0.7

---

Target: BRD4 BD2 (Homo sapiens, UniProt O60885)
Construct: HEK293 cells were transfected using NanoLuc-BRD4-BD1 or NanoLuc-BRD4-BD2 fusion vectors
Test: NanoBRET bromodomain assay, BRD4 BD2
Settings: NanoBRET, HEK293 cells transfected with NanoLuc-BRD4-BD2
pIC50: −log10 of the molar value.
Below is a list of entries, each paired with its recorded pIC50 value.

Example compounds with recorded pIC50:
Cc1cc(-c2cc3c(-c4cc(=O)n(C)cc4C4CCCC4)cn(C)c(=O)c3[nH]2)n(C)n1 [Example 52]    ≥ 7.30
Cc1cccc(C)c1Oc1cn(C)c(=O)cc1-c1cn(C)c(=O)c2[nH]c(-c3cnn(CS(C)(=O)=O)c3)cc12 [Example 65]    ≥ 7.30
Cc1cccc(C)c1Oc1cn(C)c(=O)cc1-c1cn(C)c(=O)c2[nH]c(-c3ccc(S(C)(=O)=O)cc3)cc12 [Example 26]    ≥ 7.30
Cc1cccc(C)c1Oc1cn(C)c(=O)cc1-c1cn(C)c(=O)c2[nH]c(-c3ccn[nH]3)cc12 [Example 32]    6.70 to 7.30
Cc1ccccc1-c1cc2c(-c3cc(=O)n(C)cc3Oc3c(C)cccc3C)cn(C)c(=O)c2[nH]1 [Example 15]    6.00 to 6.70
Cc1cccc(C)c1Oc1cn(C)c(=O)cc1-c1cn(C)c(=O)c2[nH]c(-c3ncccn3)cc12 [Example 39]    6.70 to 7.30

Problem: For Cc1cnc(-c2cc3c(-c4cc(=O)n(C)cc4-c4ccccc4)cn(C)c(=O)c3[nH]2)[nH]1 [Example 5] , write its pIC50.
Result: 6.70 to 7.30

Problem: Quick one: give measured pIC50 for Cc1cc(-c2cc3c(-c4cc(=O)n(C)cc4-c4ccccc4)cn(C)c(=O)c3[nH]2)n(C)n1 [Example 60]
Result: ≥ 7.30

Problem: Give a short answer stating reported pIC50 for CC#Cc1cn(C)c(=O)cc1-c1cn(C)c(=O)c2[nH]c(-c3cnn(C(C)C)c3)cc12 [Example 57] .
Result: ≥ 7.30

Problem: Identify measured pIC50 corresponding to Cc1cccc(C)c1Oc1cn(C2COC2)c(=O)cc1-c1cn(C)c(=O)c2[nH]c(-c3ccccc3F)cc12 [Example 41]
Result: 6.70 to 7.30

Problem: # return recorded pIC50 for entry Cc1cccc(C)c1Oc1cn(C)c(=O)cc1-c1cn(C)c(=O)c2[nH]c(-c3ccnnc3)cc12 [Example 27]
Result: 6.70 to 7.30

Problem: Give the value of pIC50 reported for the following: Cc1ccc(C)c(-c2cc3c(-c4cc(=O)n(C)cc4Oc4c(C)cccc4C)cn(C)c(=O)c3[nH]2)c1 [Example 19]
Result: 6.00 to 6.70

Problem: For the compound Cc1cccc(C)c1Oc1cn(C)c(=O)cc1-c1cn(C)c(=O)c2[nH]c(-c3ccc(F)cc3F)cc12 [Example 47] , report pIC50.
Result: ≥ 7.30

Problem: Supply pIC50 value. Item: Cc1cc(-c2cc3c(-c4cc(=O)n(C)cc4Oc4c(C)cccc4C)cn(C)c(=O)c3[nH]2)n(C)n1 [Example 7]
Result: ≥ 7.30

Problem: # return recorded pIC50 for input Cc1cccc(C)c1Oc1cn(C)c(=O)cc1-c1cn(C)c(=O)c2[nH]c(-c3cc(F)ccc3F)cc12 [Example 46]
Result: ≥ 7.30

Problem: Note pIC50 for the compound shown: Cc1cccc(C)c1Oc1cn(C)c(=O)cc1-c1cn(C)c(=O)c2[nH]c(-c3ncc(C(F)(F)F)[nH]3)cc12 [Example 3]
Result: ≥ 7.30

Problem: Give pIC50 for the following compound: Cc1cc(-c2cc3c(-c4cc(=O)n(C)cc4C4CCCC4)cn(C)c(=O)c3[nH]2)cc(C)n1 [Example 54]
Result: ≥ 7.30

Problem: Give recorded pIC50. Cc1cccc(C)c1Oc1cn(C)c(=O)cc1-c1cn(C)c(=O)c2[nH]c(-c3cn(C4COC4)nc3C)cc12 [Example 64]
Result: ≥ 7.30

Problem: Given the compound Cc1ccc(Cl)cc1-c1cc2c(-c3cc(=O)n(C)cc3Oc3c(C)cccc3C)cn(C)c(=O)c2[nH]1 [Example 20] , write its reported pIC50.
Result: 6.00 to 6.70

Problem: Note pIC50 for the compound shown: Cc1cccc(C)c1Oc1cn(C)c(=O)cc1-c1cn(C)c(=O)c2[nH]c(-c3ccc(C#N)cc3)cc12 [Example 24]
Result: 6.00 to 6.70

Problem: Identify the reported pIC50 for the following entry. Cc1cc(-c2cc3c(-c4cc(=O)n(C)cc4Oc4c(C)cccc4C)cn(C)c(=O)c3[nH]2)ccn1 [Example 45]
Result: ≥ 7.30

Problem: Look up pIC50 of Cc1cccc(C)c1Oc1cn(C)c(=O)cc1-c1cn(C)c(=O)c2[nH]c(-c3c(F)cccc3F)cc12 [Example 37] and report it.
Result: 6.70 to 7.30

Problem: State its pIC50: Cc1ccc(-c2cc3c(-c4cc(=O)n(C)cc4Oc4c(C)cccc4C)cn(C)c(=O)c3[nH]2)cc1 [Example 23]
Result: 6.00 to 6.70

Problem: Item Cc1cccc(C)c1Oc1cn(C)c(=O)cc1-c1cn(C)c(=O)c2[nH]c(-c3ncc[nH]3)cc12 [Example 2] : provide pIC50
Result: ≥ 7.30

src = patent US20240308998A1
